experiment: TOR pathway GLN3 branch reporter MEP2-GFP changes – S. cerevisiae, multiplex flow cytometry, primary screen (AID 1867);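 further: median GFP channel fluorescence of barcode-gated MEP2-GFP cells measured by flow cytometry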; settings: S. cerevisiae MEP2-GFP strain, 3 h, at 10 µM, active compounds read high, 100% means same as DMSO wells
Records with an inconclusive call do not appear.
property name: GFP response vs DMSO (%)
Output spec: scalar in %, unitless text.

compound=COc1ccc(C2C3=C(CC(C)(C)CC3=O)N(C)C3=C2C(=O)CC(C)(C)C3)cc1 property_name="GFP response vs DMSO" experimental_value=99.6

// query For the compound `C[C@]12CCC(=O)C=C1CC[C@@H]1[C@@H]2[C@@H](O)C[C@@]2(C)[C@H]1CC[C@]2(O)C(=O)CO` , what GFP response vs DMSO is on record?
// result 105

---

molecular target: ATP-binding cassette sub-family B member 6 (Homo sapiens); assay: blockers of ABCB6-driven porphyrin uptake – K562-ABCB6 cells, flow cytometry, validation set, pilot screen (AID 588550); conditions: K562-ABCB6 porphyrin accumulation, 1 h, at 10 µM, active compounds read high;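 further: 0% = DMSO wells and 100% = benzethonium chloride 70 µM positive control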
This listing pairs compounds with measured inhibition.
Output spec: scalar in %, unitless text.

Example cases with answers are listed next.
compound=O=C(O)CCC(=O)c1ccc(-c2ccccc2)cc1 experimental_value=0
compound="CCOC(=O)c1cc2c(nc1N)CC(C)(CC)OC2 (stereo unspecified)" experimental_value=3
compound=O=C(CN1C(=O)c2ccccc2C1=O)Nc1cccc([N+](=O)[O-])c1 experimental_value=7
compound=Cc1ccc(/C=N/Nc2nc(C(C)(C)C)cs2)o1 experimental_value=114
compound=NC(=O)N1c2ccccc2CC(=O)c2ccccc21 experimental_value=2

// query Requested read-out inhibition, target or system ATP-binding cassette sub-family B member 6 (Homo sapiens), entry `O=C(CN1CC[n+]2c(-c3cccs3)csc21)c1ccc(Br)cc1`
// result -9

---

This listing pairs compounds with measured GFP response vs DMSO.
assay: TOR pathway GLN3 branch reporter MEP2-GFP changes – S. cerevisiae, multiplex flow cytometry, primary screen (AID 1867);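 further: median GFP channel fluorescence of barcode-gated MEP2-GFP cells measured by flow cytometry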; details: S. cerevisiae MEP2-GFP strain, 3 h, at 10 µM, active compounds read high, 100% means same as DMSO wells
Inconclusive results are not listed. Activity calls are given as the source filed them.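 Rule for the calls: active = GFP response, as percent of the DMSO control, above the screen-wide mean plus 3 SD, about 139; inconclusive = no response measured because the compound's own fluorescence interfered; inactive = the rest.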

Example cases with answers are listed next.
compound=COc1ccc(/C=C(/C#N)c2cccnc2)cc1OC experimental_value="104% (inactive)"
compound=Cc1ccc(Cl)c(OCCCN(C)Cc2ccccc2)c1 experimental_value="96.6% (inactive)"
compound=CCCC(=O)O[C@]1(C(=O)COC(C)=O)CC[C@H]2[C@@H]3C[C@H](F)C4=CC(=O)C=C[C@]4(C)[C@@]3(F)[C@@H](O)C[C@@]21C experimental_value="114% (inactive)"
compound="OCCC1CN(Cc2nc(-c3ccccc3)cs2)CCN1Cc1ccc(F)cc1 (stereo unspecified)" experimental_value="98.7% (inactive)"
compound=COCCn1c(SCCOc2ccccc2)nc2ccccc2c1=O experimental_value="108% (inactive)"

// query For the compound `O=C(O)CP(=O)(O)O` , what GFP response vs DMSO is on record?
// result 105% (inactive)

// query For the compound `O=C(NCCNc1ccc(Cl)cc1[N+](=O)[O-])c1cccnc1` , what GFP response vs DMSO is on record?
// result 102% (inactive)

// query For the compound `C/C(=N\NC(=O)c1ccccc1[N+](=O)[O-])c1ccc(Br)s1` , what GFP response vs DMSO is on record?
// result 107% (inactive)

// query For the compound CC(=O)NC(Cc1ccccc1)C(=O)OCC(=O)c1ccccc1 (stereo unspecified) , what GFP response vs DMSO is on record?
// result 102% (inactive)

// query For the compound CC(C)(C)C(=O)N1CCCC1C(=O)O (stereo unspecified) , what GFP response vs DMSO is on record?
// result 96.6% (inactive)

// query For the compound COc1cc(C2Nc3ccccc3C(=O)N2c2ccccc2)ccc1O (stereo unspecified) , what GFP response vs DMSO is on record?
// result 108% (inactive)
